Where do these numbers come from? They come from patent US20190382481A1.

measured on: T1, Cyno CD33 full length (cynomolgus monkey)
T1 construct: Stably expressed on HEK293F cells by lentiviral transduction; also called Cyno CD33 (on HEK293F cells)
protocol description: flow cytometry on HEK293F cells expressing cyno CD33
experimental endpoint: mean fluorescence intensity at 6 nM mAb (MFI)
Give bare numbers, in MFI.

input: Field request: mean fluorescence intensity at 6 nM mAb | item: C33B914 (antibody, V domains shown, OMNIMouse mAb; HC C33H254, LC C33L120 (same IDs as C33B906); also called C33F552) VH: QVQLVESGGGVVQPGRSLRLSCAASGFTFSYYGMHWVRQAPDKGLEWVAVIWFDGNNKYYADSVKGRFTISRDNSKNTLYLQMNSLRAEDTAVYYCARDRELLFDYWGQGTLVTVSS VL: SYELTQPPSVSVSPGQTASITCSGDELGDMYACWYQQKPGQSPLVVIYQDSKRPSGIPERFSGSNSGNTATLTISGTQAMDEAAYYCQTWDTRIAVFGGGTNLTVLG
output: 33400
